B1: ZNF193 (parent)
chain: QCIECGKSFNRHCNLIRHQKIHTV

variants of: B1; assay: protein stability index of a GFP-peptide fusion (GPS, HEK-293T) (PSI 1-6); higher = more stable; conditions: c terminus: a fixed tail appended;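 note: lentivirally expressed fusions sorted by FACS into six bins by GFP to DsRed ratio, PSI derived from sequencing read proportions per bin multiplied by bin number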
measured_attribute: protein stability index

var: G6T
measured_value: 2.23
//
var: H22W
measured_value: 1.74
//
var: R17E
measured_value: 4.18
//
var: V24F
measured_value: 3.41
//
var: Q1S
measured_value: 3.44
//
var: N14I
measured_value: 2.6
//
var: Q1V
measured_value: 3.21
//
var: Q1Y
measured_value: 2.99
//
var: E4D
measured_value: 2.78
//
var: L15H
measured_value: 4.19
//
var: C13R
measured_value: 3.91
//
var: H22R
measured_value: 2.89
//
var: G6C
measured_value: 1.99
//
var: G6N
measured_value: 2.38
//
var: V24Y
measured_value: 3.4
//
var: Q1E
measured_value: 2.8
//
var: R11M
measured_value: 2.86
//
var: V24M
measured_value: 4.19
//
var: K7S
measured_value: 2.82
//
var: H18N
measured_value: 2.31
//
var: S8A
measured_value: 2.84
//
var: H18R
measured_value: 1.87

Every entry's value here was drawn from the supplement of paper PMC10567573.
